From: patent US6747027B1

# key: entry, value: pIC50
- studySystem: recombinant human MMP-1 (Homo sapiens, UniProt P03956)
- Sequence (P03956 100-469): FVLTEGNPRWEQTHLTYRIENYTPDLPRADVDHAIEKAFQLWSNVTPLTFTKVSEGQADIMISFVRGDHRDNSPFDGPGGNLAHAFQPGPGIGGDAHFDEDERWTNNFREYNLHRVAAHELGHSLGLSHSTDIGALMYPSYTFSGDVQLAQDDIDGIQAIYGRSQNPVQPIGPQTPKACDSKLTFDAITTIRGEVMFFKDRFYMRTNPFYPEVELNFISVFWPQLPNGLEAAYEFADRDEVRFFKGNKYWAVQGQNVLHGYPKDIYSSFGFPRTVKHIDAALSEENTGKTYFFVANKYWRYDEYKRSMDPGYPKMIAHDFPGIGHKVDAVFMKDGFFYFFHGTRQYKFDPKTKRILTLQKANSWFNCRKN
- measurementProtocol: In vitro metalloprotease inhibition, fluorogenic peptide assay (MMP-1)
- conditionSet: recombinant human MMP-1, APMA activated; fluorogenic MCA peptide substrate 4 uM; pH 7.5, room temperature
pIC50: −log10 of the molar value. Counter-ions that a name gives are not always drawn.

[
  {
    "compound": "C[C@H](CS)N(CC(=O)O)S(=O)(=O)c1ccc(Sc2ccccc2)cc1 [Example 103]",
    "measurementQualifier": "<",
    "pIC50": 5.00
  },
  {
    "compound": "C[C@H](CS)N(CCN1CCCCC1)S(=O)(=O)c1ccc(Sc2ccccc2)cc1 [Example 92D, Hydrochloride]",
    "measurementQualifier": "=",
    "pIC50": 5.22
  },
  {
    "compound": "C[C@H](CS)NS(=O)(=O)c1ccc(C#N)cc1 [Example 76]",
    "measurementQualifier": "=",
    "pIC50": 5.46
  },
  {
    "compound": "C[C@H](CS)N(C)S(=O)(=O)c1ccc(-c2ccccc2)cc1 [Example 55]",
    "measurementQualifier": "=",
    "pIC50": 6.50
  },
  {
    "compound": "CCCCOc1ccc(S(=O)(=O)N[C@H](C)CS)cc1 [Example 15]",
    "measurementQualifier": "<",
    "pIC50": 5.00
  },
  {
    "compound": "CCCCOc1ccc(S(=O)(=O)NC(CO)CS)cc1 (stereo not drawn) [Example 110]",
    "measurementQualifier": "<",
    "pIC50": 5.00
  },
  {
    "compound": "COc1ccc(S(=O)(=O)N(CC(C)C)[C@H](C)CS)cc1 [Example 14C]",
    "measurementQualifier": "=",
    "pIC50": 5.97
  },
  {
    "compound": "CCCCN([C@H](C)CS)S(=O)(=O)c1ccc(OC)cc1 [Example 99]",
    "measurementQualifier": "=",
    "pIC50": 6.05
  },
  {
    "compound": "C[C@H](CSC(=O)C(C)(C)C)N(CCN1CCOCC1)S(=O)(=O)c1ccc(Sc2ccccc2)cc1 [Example 133]",
    "measurementQualifier": "<",
    "pIC50": 5.00
  },
  {
    "compound": "NC(=O)[C@H](CS)N(CCN1CCOCC1)S(=O)(=O)c1ccc(NC(=O)c2ccc(Br)cc2)cc1 [Example 222]",
    "measurementQualifier": "=",
    "pIC50": 5.28
  },
  {
    "compound": "CCCCOc1ccc(S(=O)(=O)N[C@@H](CS)C(=O)N(C)C)cc1 [Example 178]",
    "measurementQualifier": "<",
    "pIC50": 5.00
  },
  {
    "compound": "COc1ccc(S(=O)(=O)N[C@H](C)CS)cc1OC [Example 100]",
    "measurementQualifier": "<",
    "pIC50": 5.00
  },
  {
    "compound": "CCCCCc1ccc(S(=O)(=O)N(CCN2CCOCC2)[C@@H](CS)C(N)=O)cc1 [Example 128]",
    "measurementQualifier": "=",
    "pIC50": 5.30
  },
  {
    "compound": "C[C@H](CS)N(C)S(=O)(=O)c1ccc(Oc2ccccc2)cc1 [Example 40E]",
    "measurementQualifier": "=",
    "pIC50": 6.51
  },
  {
    "compound": "CCCCOc1ccc(S(=O)(=O)N(CCN2CCCCC2)[C@H](C)CS)cc1 [Example 46]",
    "measurementQualifier": "=",
    "pIC50": 5.46
  },
  {
    "compound": "COc1ccc(-c2ccc(S(=O)(=O)N(CCN3CCOCC3)[C@@H](CS)C(N)=O)cc2)cc1 [Example 131]",
    "measurementQualifier": "=",
    "pIC50": 7.15
  },
  {
    "compound": "CCCCOc1ccc(S(=O)(=O)N[C@@H](CS)C(N)=O)cc1 [Example 201]",
    "measurementQualifier": "=",
    "pIC50": 5.15
  },
  {
    "compound": "CC(=O)Nc1ccc(S(=O)(=O)N[C@@H](CS)C(N)=O)cc1 [Example 199]",
    "measurementQualifier": "<",
    "pIC50": 5.00
  }
]
